TEST SUMMARY: DTNB assay for reactivity with free thiols, reduced glutathione
Format: physicochemical
MEASUREMENT CONDITIONS: 0.25 mM reduced glutathione, 30 min at 37° C., pH 8.0
READOUT NAME: DTNB Reactivity with Thiols - DTNB assay with Glutathione

{"columns": ["COMPOUND", "TEST RESULT"],
 "data": [
  ["CCCCCC(O)C#CCBr (centres unmarked)", "Reactive"],
  ["CCCCCC(Cl)C#CC(F)(F)Br (centres unmarked)", "Reactive"]
]}

====

Test system: IMR-90 (non-malignant lung fibroblasts)
TEST SUMMARY: MTT antiproliferative assay in IMR-90 cells
Assay type: cell-based
MEASUREMENT CONDITIONS: Homo sapiens, 72 hrs treatment, read-out: MTT Antiproliferative Activity - IC50 (μM) IMR0 (non-malignant lung fibroblasts)
Rule for this label: T means IC50 is less than 3 µM; F means IC50 is at least 3 µM.

{"columns": ["COMPOUND", "TARGET DESC", "LABEL VALUE"],
 "data": [
  ["CCCCCCCCCC(O)C#CC(F)(F)Br (stereo not drawn)", "IMR-90 (non-malignant lung fibroblasts)", "T"],
  ["CCCCC[C@H](O)C#CC(F)(F)Br", "IMR-90 (non-malignant lung fibroblasts)", "F"],
  ["CCCCCC(O)C#CC(F)(F)Oc1ccc(F)cc1 (stereo not drawn)", "IMR-90 (non-malignant lung fibroblasts)", "F"],
  ["OC(C#CC(F)(F)Br)C1CCCCC1 (stereo not drawn)", "IMR-90 (non-malignant lung fibroblasts)", "F"],
  ["CCCCCCCCCCCC(O)C#CC(F)(F)Br (stereo not drawn)", "IMR-90 (non-malignant lung fibroblasts)", "T"],
  ["CC/C=C\\CCC(O)C#CC(F)(F)Br (stereo not drawn)", "IMR-90 (non-malignant lung fibroblasts)", "F"],
  ["CCCCCC(C)(O)C#CC(F)(F)Br (stereo not drawn)", "IMR-90 (non-malignant lung fibroblasts)", "F"],
  ["CCCCCC(=O)/C=C(\\NCCC)C(F)(F)Br", "IMR-90 (non-malignant lung fibroblasts)", "F"],
  ["CC(C)C(O)C#CC(F)(F)Br (stereo not drawn)", "IMR-90 (non-malignant lung fibroblasts)", "F"],
  ["OC(C#CC(F)(F)Br)CCCCc1ccccc1 (stereo not drawn)", "IMR-90 (non-malignant lung fibroblasts)", "F"],
  ["CCCCCC(O)C#CC(F)(F)Br (stereo not drawn)", "IMR-90 (non-malignant lung fibroblasts)", "T"],
  ["CCCC(C)C(O)C#CC(F)(F)Br (stereo not drawn)", "IMR-90 (non-malignant lung fibroblasts)", "F"]
]}
